Items are presented alongside their recorded normalized growth.
test.name: chemical genetic growth profiling, strain panel (AID 1159580);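 also: tested at 20 µM; growth read once vehicle control cultures reached saturation at 30 °C; 1 = growth at the plate median or of vehicle wells; lower values mean less growth of the strain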
condition: S. cerevisiae deletion strains, growth OD, locus YFR028C, strain CDC14, active compounds read low
In all, about 5,500 compounds went through this assay and about 2,000 (36%) were called active. Another 18% or so got no clear call; they are omitted. This is one part of the list.

Study these solved cases before continuing.
structure.as.smiles	normalized growth
Cn1nc(-c2ccccc2)c(O)c(N=Nc2ccccc2)c1=O	0.974 (inactive)
CC(=O)c1ccccc1C(=O)c1ccc(C(C)(C)C)cc1	0.965 (inactive)
N#C/C(=N/Nc1cccc(C(F)(F)F)c1)C(=O)c1csc(-c2cccnc2)n1	0.967 (inactive)
O=C(NNC(=S)Nc1ccc(Cl)cc1)c1ncc(C(F)(F)F)cc1Cl	0.984 (inactive)

Req: Sample CS/C(Nc1cccc(C(F)(F)F)c1)=C(/C#N)S(=O)(=O)c1ccc(Cl)cc1 — what was its normalized growth?
Resp: 0.948 (inactive)

Req: Sample O=c1c(-c2ccccc2)c(O)c2cccc3c4c(n1c23)CCCC4 — what was its normalized growth?
Resp: 0.927 (inactive)

---

test.name: chemical genetic growth profiling, strain panel (AID 1159580)
condition: S. cerevisiae deletion strains, growth OD, locus YHR027C, strain rpn1, active compounds read low
About 2,000 (36%) of roughly 5,500 compounds were called active. About 18% were inconclusive and are not listed. The list shows a part of the results.
Label True when normalized growth is strictly below 1; otherwise label False.

# example entries with known answers
structure.as.smiles	qualitative.label
CC1=C(O)C(=O)C=C2C1=CC=C1[C@@]2(C)CC[C@@]2(C)[C@@H]3C[C@](C)(C(=O)O)CC[C@]3(C)CC[C@]12C	True
CC(=O)[O][Hg][c]1ccccc1	True
CN1CCN(CCCN2c3ccccc3Sc3ccc(C(F)(F)F)cc32)CC1	True

Req: Field: below-cutoff. Rule: recorded normalized growth strictly less than 1. Subject: O=C(O)c1cc(=O)c2cccc(O)c2[nH]1
Resp: False

Req: Field: below-cutoff. Rule: recorded normalized growth strictly less than 1. Subject: OCCN1CCN(CCCN2c3ccccc3Sc3ccc(C(F)(F)F)cc32)CC1
Resp: True

---

test.name: chemical genetic growth profiling, strain panel (AID 1159580);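 also: tested at 20 µM; growth read once vehicle control cultures reached saturation at 30 °C; 1 = growth at the plate median or of vehicle wells; lower values mean less growth of the strain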
condition: S. cerevisiae deletion strains, growth OD, locus YNL307C, strain MCK1, active compounds read low
Hit rate of the full screen: of about 5,500 compounds, about 2,000 (36%) were called active. Roughly 18% stayed inconclusive and do not appear here. The list shows a part of the results.
Items are presented alongside their recorded normalized growth.
Reply with the value as a number alone.

Study these solved cases before continuing.
compound	recorded.value
Cc1cc(C(C)(C)C)cc(C)c1CC1=NCCN1	1.01
O=C1c2ccccc2C(=O)C1c1ccccc1	1
CC1=CC(=O)C2=C(C)CC(O)C3C(C)C(=O)OC3C12 (stereo not given)	1.03
COP(=O)(OC)OC(Br)C(Cl)(Cl)Br (stereo not given)	1.02

Req: Sample COc1ccc(C2C(=O)c3ccccc3C2=O)cc1 — what was its normalized growth?
Resp: 1.01

Req: Sample CC1(C)C=Cc2cc3ccc(=O)oc3cc2O1 — what was its normalized growth?
Resp: 0.943

Req: Sample CC(=O)c1cc2c(cc1O)OC(C)(C)C=C2 — what was its normalized growth?
Resp: 0.975

Req: Sample OCCN1CCN(CCCN2c3ccccc3Sc3ccc(C(F)(F)F)cc32)CC1 — what was its normalized growth?
Resp: 0.98

Req: Sample COc1cc2cc3c4cc(OC)c(OC)cc4cc[n+]3c(C)c2cc1OC — what was its normalized growth?
Resp: 1.01

Req: Sample CN1CCN(CCC=C2c3ccccc3Sc3ccc(S(=O)(=O)N(C)C)cc32)CC1 — what was its normalized growth?
Resp: 0.791

---

Items are presented alongside their recorded normalized growth.
test.name: chemical genetic growth profiling, strain panel (AID 1159580);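 also: tested at 20 µM; growth read once vehicle control cultures reached saturation at 30 °C; 1 = growth at the plate median or of vehicle wells; lower values mean less growth of the strain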
condition: S. cerevisiae deletion strains, growth OD, locus YDL074C, strain BRE1, active compounds read low
Out of some 5,500 compounds screened, about 2,000 (36%) were called active. Roughly 18% stayed inconclusive and do not appear here. Some of the results follow.
Reply with the value as a number alone.

Study these solved cases before continuing.
molecule	normalized growth
NC[C@H]1O[C@H](O[C@H]2C(O[C@@H]3O[C@H](CO)[C@@H](O)[C@H]3O)[C@@H](O)[C@H](N)C[C@@H]2N)[C@H](N)[C@@H](O)[C@@H]1O (some centres not stated)	0.985
COc1c2c(cc3c1OCO3)C13C=C[C@H](OC)CC1N(C2)CC3O (some centres not stated)	1.01
NC[C@H]1O[C@H](O[C@H]2[C@H](O)[C@@H](O[C@H]3O[C@H](CO)[C@@H](O)[C@H](N)[C@H]3O)[C@H](N)C[C@@H]2N)[C@H](N)C[C@@H]1O	0.971
CC(=O)OCC(=O)[C@@]12OC3(CCCC3)O[C@@H]1CC1C3CCC4=CC(=O)C=C[C@]4(C)[C@@]3(F)[C@@H](O)C[C@@]12C (some centres not stated)	0.972
COc1cc2cc3c4cc(OC)c(OC)cc4cc[n+]3c(C)c2cc1OC	0.996

Req: Sample CC[C@@H](CO)NC(=O)[C@@H]1C=C2c3cccc4[nH]cc(c34)C[C@H]2N(C)C1 — what was its normalized growth?
Resp: 1.02

Req: Sample NCC1OC(OC2C(CO)OC(OC3C(O)C(N)CC(N)C3OC3OC(CO)C(O)CC3N)C2O)C(N)C(O)C1OC1OC(CO)C(O)C(O)C1O (configuration not stated) — what was its normalized growth?
Resp: 0.993

---

Items are presented alongside their recorded normalized growth.
test.name: chemical genetic growth profiling, strain panel (AID 1159580);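 also: tested at 20 µM; growth read once vehicle control cultures reached saturation at 30 °C; 1 = growth at the plate median or of vehicle wells; lower values mean less growth of the strain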
condition: S. cerevisiae deletion strains, growth OD, locus YGL240W, strain doc1, active compounds read low
In all, about 5,500 compounds went through this assay and about 2,000 (36%) were called active. Another 18% or so got no clear call; they are omitted. Some of the results follow.

Study these solved cases before continuing.
compound	experimental.readout	recorded.value
Cc1onc(-c2c(Cl)cccc2Cl)c1C(=O)N[C@@H]1C(=O)N2[C@@H]1SC(C)(C)[C@@H]2C(=O)O	normalized growth	0.951 (inactive)
OC(c1cc(C(F)(F)F)nc2c(C(F)(F)F)cccc12)C1CCCCN1 (stereo unspecified)	normalized growth	1.03 (inactive)
COc1ccc(C2C(=O)c3ccccc3C2=O)cc1	normalized growth	1.02 (inactive)
Cc1onc(-c2ccccc2)c1C(=O)NC1C(=O)N2[C@@H]1SC(C)(C)[C@@H]2C(=O)O (stereo partly specified)	normalized growth	1.02 (inactive)
Cc1cc(C(C)(C)C)c(O)c(C)c1CC1=NCCN1	normalized growth	0.992 (inactive)

Req: Sample NCCNCCNCCN — what was its normalized growth?
Resp: 1.02 (inactive)

Req: Sample C=C(C)[C@H]1Cc2c(ccc3c2O[C@@H]2COc4cc(OC)c(OC)cc4[C@@H]2C3=O)O1 — what was its normalized growth?
Resp: 0.999 (inactive)

Req: Sample C#CC1(O)CCC2C3CCC4=CC(=O)CCC4(C)C3CCC21C (stereo unspecified) — what was its normalized growth?
Resp: 0.987 (inactive)

Req: Sample O=C1c2ccccc2C(=O)C1c1ccccc1 — what was its normalized growth?
Resp: 1.01 (inactive)

Req: Sample CC1(C)S[C@@H]2[C@H](NC(=O)Cc3ccccc3)C(=O)N2[C@H]1C(=O)O — what was its normalized growth?
Resp: 0.993 (inactive)

Req: Sample Cc1onc(-c2ccccc2Cl)c1C(=O)N[C@@H]1C(=O)N2[C@@H]1SC(C)(C)[C@@H]2C(=O)O — what was its normalized growth?
Resp: 1.02 (inactive)

Req: Sample Cc1cc(C(C)(C)C)cc(C)c1CC1=NCCN1 — what was its normalized growth?
Resp: 1.03 (inactive)

Req: Sample CC(=O)OCC1=C(C(=O)O)N2C(=O)[C@@H](NC(=O)CCCC(N)C(=O)O)C2SC1 (stereo partly specified) — what was its normalized growth?
Resp: 0.998 (inactive)

Req: Sample C#C[C@]1(O)CCC2C3CCC4=Cc5oncc5C[C@]4(C)C3CC[C@@]21C (stereo partly specified) — what was its normalized growth?
Resp: 0.94 (inactive)

Req: Sample COc1cc(-c2coc3cc(O[C@@H]4O[C@H](CO)[C@@H](O)[C@H](O)[C@H]4O)c(OC)c(O)c3c2=O)cc(O)c1OC — what was its normalized growth?
Resp: 0.961 (inactive)

Req: Sample CC(=O)CC1CCCCN1 (stereo unspecified) — what was its normalized growth?
Resp: 1.01 (inactive)

Req: Sample COc1cc2c(cc1OC)[C@@H]1C(=O)c3ccc4c(c3O[C@@H]1CO2)CC(C(C)C)O4 (stereo partly specified) — what was its normalized growth?
Resp: 0.956 (inactive)

Req: Sample CNC(Cc1c[nH]c2ccccc12)C(=O)O (stereo unspecified) — what was its normalized growth?
Resp: 1 (inactive)

Req: Sample c1ccc([C@H]2CN3CCSC3=N2)cc1 — what was its normalized growth?
Resp: 1 (inactive)

Req: Sample CC(=O)OCC(=O)[C@@]1(O)CCC2C3CCC4=CC(=O)CC[C@]4(C)C3[C@@H](O)C[C@@]21C (stereo partly specified) — what was its normalized growth?
Resp: 1 (inactive)

Req: Sample COc1cccc(OC)c1C(=O)N[C@@H]1C(=O)N2[C@@H]1SC(C)(C)[C@@H]2C(=O)O — what was its normalized growth?
Resp: 1 (inactive)
